Ref: PubChem BioAssay (NCI)

For each entry below, report its TGI value.
# System: MALME-3M melanoma
# TEST_PROTOCOL: NCI tumour cell line growth inhibition, 48 h

// sample "O=C(N=Nc1cc(Cl)ccc1Cl)NNc1cc(Cl)ccc1Cl" , its TGI was 82.1 µM

# TGI of CC1CCCc2c1nn(C(=O)/C=C(\N)c1ccccc1)c2N (stereo not drawn) = > 100 µM

Notebook: "CNC(SC)=C1C(=O)OC(C)(C)OC1=O" , TGI read as > 100 µM

* * *

What TGI was measured for each of the following?
# Tested on: OVCAR-4 ovarian
# TEST_PROTOCOL: NCI tumour cell line growth inhibition, 48 h

Quick note, TGI for "O=P(c1ccccc1)(c1ccccc1)N1O[C@@H](c2ccccc2)C=C[C@H]1c1ccccc1" landed at 10.6 µM

Measured TGI, "O=C1C=CC(=O)N1Nc1ccc([N+](=O)[O-])cc1[N+](=O)[O-]" : > 79.9 µM

Record summary for "Oc1ccccc1/C=N/c1nc2cc3sc(/N=C/c4ccccc4O)nc3cc2s1" : reported TGI = > 100 µM

* * *

Provide the reported TGI of each item.
# Tested on: UACC-257 melanoma
# TEST_PROTOCOL: NCI tumour cell line growth inhibition, 48 h

Recorded TGI (compound "O=S(=O)(O)c1cc2ccc1/C=C\c1ccc(cc1S(=O)(=O)O)N=Nc1ccc(c(S(=O)(=O)O)c1)/C=C\c1ccc(cc1S(=O)(=O)O)N=N2" ): > 100 µM

Value of TGI reported for the compound "Cc1cc2c(Br)cc(Br)c(O)c2nc1C(=O)c1ccccc1" is > 65.7 µM

Item: "COc1ccccc1-c1cc(=O)c2ccc(C)nc2[nH]1" | TGI: > 100 µM

* * *

# Test system: SF-268 CNS
# TEST_PROTOCOL: NCI tumour cell line growth inhibition, 48 h
Exercise: for every item that follows, state its recorded TGI.

TGI for SF-268 CNS with input "CN(C)c1ccc(C=C2N=C(c3ccccc3)N(c3cc(C(=O)c4ccccc4)ccc3N3C(=O)/C(=C/c4ccc(N(C)C)cc4)N=C3c3ccccc3)C2=O)cc1" equals > 100 µM

# lookup: "Cc1cc2[nH]c3[nH]c(=O)[nH]c(=O)c3c2cc1C" on SF-268 CNS, TGI = > 100 µM

Summary line: C#CCC(N)(CO)C(=O)O (stereo unspecified) , SF-268 CNS, reported TGI = > 100 µM

# lookup: "CS(=O)(=O)OCCn1c(=O)n(CCOS(C)(=O)=O)c(=O)n(CCOS(C)(=O)=O)c1=O" on SF-268 CNS, TGI = > 100 µM

Summary line: "CSc1c(C)c(C)nn1-c1ccccc1" , SF-268 CNS, reported TGI = > 100 µM

Field TGI (system: SF-268 CNS) for entry "CCN(CC)CCOc1ccc(N2C(=O)c3cc(OC)c(OC)cc3C2=O)cc1" = > 100 µM

Reported TGI (SF-268 CNS) for entry "CC1(C)N=C(C(N)=O)c2ncn(CCCO)c2N1" is > 100 µM

The reported SF-268 CNS TGI of "Cc1ccccc1C(O)(c1nccn1C)c1nccn1C" is > 100 µM

Case O=C(/C=C/c1ccccc1)CC(c1ccccc1)N1CCOCC1 (stereo unspecified) , SF-268 CNS, TGI recorded as 19.3 µM

Bench note, SF-268 CNS: "COc1ccc(-c2nnc(N3CCN(C(=O)CN4CCN(c5ccc(OC)cc5)CC4)CC3)nc2-c2ccc(OC)cc2)cc1" , TGI reads 14.2 µM

Tested on SF-268 CNS, the item C=CCC1[C@@H](C(C)(C)C(C(C)=O)C(=O)C(=O)OC)OC(C(C)(C)C)N1C(=O)OC (stereo partly specified) showed TGI equal to > 100 µM

Known value: SF-268 CNS TGI of the molecule "COc1c(Br)cc(Br)c(OC)c1-c1[nH]c(Br)c(Br)c1Br" equals 15.1 µM

Here "Cn1cc(-c2csc(-c3cn(C)c4ccccc34)n2)c2cnccc21" was tested on SF-268 CNS, and its TGI came to 3.92 µM

Test item CCOC(=O)c1ccc(N[C@@H]2c3cc4c(cc3C(C3=CC(=O)C(=O)C(OC)=C3)[C@H]3C(=O)OCC32)OCO4)cc1 (stereo partly specified) ; SF-268 CNS; reported TGI was 10.4 µM

Record O=C1CN2C(c3ccccc3)=NN(c3ccc([N+](=O)[O-])cc3)C2(c2ccccc2)c2cc(Cl)ccc2N1CC1CC1 (stereo unspecified) ; system SF-268 CNS; TGI = > 100 µM

Item: CCCCCCCCCCCCCCCCCCNC(=O)[C@H]1CSC(c2cccs2)N1 (stereo partly specified) | System: SF-268 CNS | TGI: 2.34 µM
